Reported Kd is given for each of the following binders.
Biological target: human IgG1 antibody (#I5154; Sigma-Aldrich) (human)
Assay: SPR, single cycle kinetics, IgG1 chip
Reply with just the number (in nM).

{"binder": "R3-26 rabbit-derived single-chain antibody-His (scFv) scFv: QEQLVESGGGLVKPGGTLTLTCTVSGIDLSSYAMSWVRQVPGKGLEWIGIIGSGGGTAYANWAKGRFTISKTSSTTVDLKMTSLTTEDTATYFCATDYGIYGYAYGHLWGPGTLVTVTSGGGGSGGGGSGGGGSELVMTQTASPVSAAVGGTVTIKCQASQSISTALAWYQQRPGQPPKLLIYDASTLASGVSSRFKGSGSGTEFTLTISDLECADAATYYCQTYFGSDTDNAFGEGTEVEITGSHHHHHH", "experimental result": 2.1}

Okay, next one:
Param item = R2-16 rabbit-derived single-chain antibody-His (scFv) scFv: QSVKESGGRLVTPGTPLTLTCTVSGFSLSSYAMGWVRQAPGKGLEYIGIISSSGSTYYASWAKGRFTISKTSTTVDLKITSPTTEDTATYFCARYSGDNGGALNLWGPGTLVTVTSGGGGSGGGGSGGGGSELDLTQTAASVSEPVGGTVTISCQSSQHIRSYLAWYQQKPGQPPKLLISAASTLASGVSSRFKGSGSGTEFTLTISDLECADAATYYCQRYYDIRNYGNGFGGGTEVEITGSHHHHHH ; retrieve measured Kd.
2.5
